Form field: protein stability index (one value per entry).
B1: KCTD10 (parent)
chain: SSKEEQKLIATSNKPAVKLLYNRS

Variants of: B1
Assay overview: protein stability index of a GFP-peptide fusion (GPS, HEK-293T) (PSI 1-6); higher = more stable;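 further: lentivirally expressed fusions sorted by FACS into six bins by GFP to DsRed ratio, PSI derived from sequencing read proportions per bin multiplied by bin number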
Details: c terminus: a fixed tail appended
// return just the number, without any unit appended

Illustrative cases are given below, each with its answer.
K14N; 3.96
L20E; 3.98

[in] Looking for the measured protein stability index of A16V , can you help?
[out] 3.89
